- procedureSummary: Half life in human liver microsomes at 10 uM by LC-MS/MS analysis
- Type: ADME, microsome
log10(half-life at 10 µM) values for the compounds below.
measurementLabel: log10(half-life at 10 µM) (log10 of the value in h)

>>> reportedvalue("[2H]C([2H])([2H])Oc1ccc2c(c1)C(=O)N1CCC[C@H]1c1c(C(=O)NCC)ncn1-2")
1.33
>>> reportedvalue("COc1ccc2c(c1)C(=O)N1CCC[C@H]1c1c(C(=O)NC(C)(C)C)ncn1-2")
0.51
>>> reportedvalue("[2H]C([2H])([2H])Oc1ccc2c(c1)C(=O)N1CCC[C@H]1c1c(C(=O)OC(C(F)(F)F)C(F)(F)F)ncn1-2")
0.53
>>> reportedvalue("CCOC(=O)c1ncn2c1[C@@H]1CCCN1C(=O)c1cc(O)ccc1-2")
1.04
>>> reportedvalue("[2H]C([2H])([2H])Oc1ccc2c(c1)C(=O)N1CCC[C@H]1c1c(C(=O)NC3CC3)ncn1-2")
1.48
>>> reportedvalue("[2H]C([2H])([2H])Oc1ccc2c(c1)C(=O)N1CCC[C@H]1c1c(C(=O)N(C)C)ncn1-2")
1.12
>>> reportedvalue("[2H]C([2H])([2H])Oc1ccc2c(c1)C(=O)N1CCC[C@H]1c1c(C(=O)OCC)ncn1-2")
1.15
>>> reportedvalue("COc1ccc2c(c1)C(=O)N1CCC[C@H]1c1c(C(=O)OCC(C)C)ncn1-2")
0.45
